Target: T1, recombinant human LAG-3-his protein (Novoprotein) (human, UniProt P18627 23-450)
T1 construct: Bought; also called huLAG-3; not shown: His tag
T1 sequence (looked up): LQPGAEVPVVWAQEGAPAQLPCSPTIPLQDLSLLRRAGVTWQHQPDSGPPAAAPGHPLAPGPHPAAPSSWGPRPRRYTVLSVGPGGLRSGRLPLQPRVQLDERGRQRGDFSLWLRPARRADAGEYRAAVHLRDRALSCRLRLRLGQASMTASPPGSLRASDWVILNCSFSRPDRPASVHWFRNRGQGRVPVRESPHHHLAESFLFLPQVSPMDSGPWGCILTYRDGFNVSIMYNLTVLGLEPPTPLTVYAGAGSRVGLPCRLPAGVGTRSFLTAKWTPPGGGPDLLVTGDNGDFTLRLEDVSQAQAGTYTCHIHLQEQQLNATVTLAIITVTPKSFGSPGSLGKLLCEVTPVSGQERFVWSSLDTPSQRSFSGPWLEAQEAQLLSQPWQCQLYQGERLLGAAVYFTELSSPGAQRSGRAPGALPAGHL
Test: BLI Octet, Ab on AHC sensor, huLAG-3-his; test group 1
reported.metric: koff (s⁻¹)
# value in s⁻¹; strip the unit string

Req: Sample mAb747c (antibody, V domains shown, also called mAb717c) VH: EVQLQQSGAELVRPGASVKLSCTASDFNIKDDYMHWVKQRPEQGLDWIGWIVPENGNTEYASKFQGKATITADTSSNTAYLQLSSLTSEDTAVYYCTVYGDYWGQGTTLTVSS VL: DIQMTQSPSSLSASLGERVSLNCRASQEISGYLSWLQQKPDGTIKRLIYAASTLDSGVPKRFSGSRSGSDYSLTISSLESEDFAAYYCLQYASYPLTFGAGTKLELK — what was its koff?
Resp: 0.0015
